Recorded values, source ChEMBL document CHEMBL4371067.

- test-summary: Clearance in mouse liver microsomes assessed as drug extraction at 5 uM
- Format: ADME, Microsome
- condition-set: liver microsomes, read-out: CLH
Listed compounds paired with reported hepatic extraction ratio at 5 µM
# print the numeric value only

// solved cases for hepatic extraction ratio at 5 µM follow
compound: COCCC#Cc1c(Cl)c2c(Cl)cc(C(N)=O)nc2n1[C@H]1CCCNC1
readout: hepatic extraction ratio at 5 µM
numeric-value: 0.5

compound: NC(=O)c1cc(Cl)c2c(Cl)c(C#CC3CNCCO3)n([C@H]3CCCNC3)c2n1 (stereo in doubt; 29a)
readout: hepatic extraction ratio at 5 µM
numeric-value: 0.22

compound: NC(=O)c1cc(Cl)c2c(Cl)c(C#CC3CCOCC3)n([C@H]3CCCNC3)c2n1
readout: hepatic extraction ratio at 5 µM
numeric-value: 0.13

compound: CC(C)(CC#Cc1c(Cl)c2c(Cl)cc(C(N)=O)nc2n1[C@H]1CCCNC1)C(N)=O
readout: hepatic extraction ratio at 5 µM
numeric-value: 0.06

compound: CN1CC(C#Cc2c(Cl)c3c(Cl)cc(C(N)=O)nc3n2[C@H]2CCCNC2)CC1=O (some centres not stated)
readout: hepatic extraction ratio at 5 µM
numeric-value: 0.22

compound: NC(=O)c1cc(Cl)c2c(Cl)c(C#CCN3CCCC3=O)n([C@H]3CCCNC3)c2n1
readout: hepatic extraction ratio at 5 µM
numeric-value: 0.26

The record that follows has no hepatic extraction ratio at 5 µM shown yet.
Identify hepatic extraction ratio at 5 µM associated with the compound `CC1(C#Cc2c(Cl)c3c(Cl)cc(C(N)=O)nc3n2[C@H]2CCCNC2)COC1`
0.19

---

- system: Voltage-gated inwardly rectifying potassium channel KCNH2 (Homo sapiens, UniProt Q12809)
- Sequence (Q12809 whole entry): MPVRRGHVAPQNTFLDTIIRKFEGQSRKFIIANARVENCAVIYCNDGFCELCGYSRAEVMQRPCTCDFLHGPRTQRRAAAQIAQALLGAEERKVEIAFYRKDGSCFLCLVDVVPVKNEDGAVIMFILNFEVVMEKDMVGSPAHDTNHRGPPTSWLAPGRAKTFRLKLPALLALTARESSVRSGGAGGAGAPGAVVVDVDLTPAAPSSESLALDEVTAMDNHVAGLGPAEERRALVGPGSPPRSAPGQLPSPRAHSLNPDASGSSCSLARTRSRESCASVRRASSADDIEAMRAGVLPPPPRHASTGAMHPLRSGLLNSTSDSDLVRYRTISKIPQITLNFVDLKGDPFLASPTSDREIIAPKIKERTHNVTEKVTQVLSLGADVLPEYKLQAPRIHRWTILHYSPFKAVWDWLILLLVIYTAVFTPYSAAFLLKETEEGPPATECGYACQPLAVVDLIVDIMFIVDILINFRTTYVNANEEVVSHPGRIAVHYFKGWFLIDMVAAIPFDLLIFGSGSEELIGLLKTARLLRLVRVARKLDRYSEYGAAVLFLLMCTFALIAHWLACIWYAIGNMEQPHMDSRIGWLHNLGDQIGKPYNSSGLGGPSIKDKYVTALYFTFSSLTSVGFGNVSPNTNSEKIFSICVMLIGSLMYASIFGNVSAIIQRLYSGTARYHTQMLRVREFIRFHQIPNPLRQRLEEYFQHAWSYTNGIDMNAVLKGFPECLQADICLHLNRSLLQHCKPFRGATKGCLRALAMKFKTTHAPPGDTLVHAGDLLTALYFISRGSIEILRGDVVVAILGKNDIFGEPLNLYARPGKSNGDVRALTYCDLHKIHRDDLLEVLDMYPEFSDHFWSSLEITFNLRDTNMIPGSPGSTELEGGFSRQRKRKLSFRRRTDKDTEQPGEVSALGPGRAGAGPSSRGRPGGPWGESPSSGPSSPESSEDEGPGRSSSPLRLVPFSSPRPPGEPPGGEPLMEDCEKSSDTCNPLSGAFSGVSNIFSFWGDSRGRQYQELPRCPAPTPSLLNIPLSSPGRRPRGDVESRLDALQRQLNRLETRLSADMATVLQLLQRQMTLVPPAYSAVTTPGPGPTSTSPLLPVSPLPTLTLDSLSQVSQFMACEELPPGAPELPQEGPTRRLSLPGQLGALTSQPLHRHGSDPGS
Listed compounds paired with reported IC50

// solved cases for IC50 follow
compound: CC(C)(CC#Cc1c(Cl)c2c(Cl)cc(C(N)=O)nc2n1[C@H]1CCCNC1)C(N)=O
system: Voltage-gated inwardly rectifying potassium channel KCNH2 (Homo sapiens, UniProt Q12809)
IC50: > 10 µM
//
compound: NC(=O)c1cc(Cl)c2c(Cl)c(C#CCN3CCCC3=O)n([C@H]3CCCNC3)c2n1
system: Voltage-gated inwardly rectifying potassium channel KCNH2 (Homo sapiens, UniProt Q12809)
IC50: > 20 µM
//
compound: NC(=O)c1cc(Cl)c2c(Cl)c(C#CC3CNCCO3)n([C@H]3CCCNC3)c2n1 (stereo in doubt; 29b)
system: Voltage-gated inwardly rectifying potassium channel KCNH2 (Homo sapiens, UniProt Q12809)
IC50: > 20 µM

The record that follows has no IC50 shown yet.
Identify IC50 associated with the compound CN1CC(C#Cc2c(Cl)c3c(Cl)cc(C(N)=O)nc3n2[C@H]2CCCNC2)CC1=O (some centres undefined)
> 20 µM
